target: Rap guanine nucleotide exchange factor 3 (Homo sapiens) (UniProt O95398); assay: Confirmatory qHTS for antagonist of cAMP-regulated guanine nucleotide exchange factor 3 (EPAC1) (AID 1645880); conditions: EPAC1 Rap1B-BODIPY-GDP exchange, fluorescence; note: nearly all actives have a fitted effect of over 55% in size
Sequence (O95398 whole entry, looked up): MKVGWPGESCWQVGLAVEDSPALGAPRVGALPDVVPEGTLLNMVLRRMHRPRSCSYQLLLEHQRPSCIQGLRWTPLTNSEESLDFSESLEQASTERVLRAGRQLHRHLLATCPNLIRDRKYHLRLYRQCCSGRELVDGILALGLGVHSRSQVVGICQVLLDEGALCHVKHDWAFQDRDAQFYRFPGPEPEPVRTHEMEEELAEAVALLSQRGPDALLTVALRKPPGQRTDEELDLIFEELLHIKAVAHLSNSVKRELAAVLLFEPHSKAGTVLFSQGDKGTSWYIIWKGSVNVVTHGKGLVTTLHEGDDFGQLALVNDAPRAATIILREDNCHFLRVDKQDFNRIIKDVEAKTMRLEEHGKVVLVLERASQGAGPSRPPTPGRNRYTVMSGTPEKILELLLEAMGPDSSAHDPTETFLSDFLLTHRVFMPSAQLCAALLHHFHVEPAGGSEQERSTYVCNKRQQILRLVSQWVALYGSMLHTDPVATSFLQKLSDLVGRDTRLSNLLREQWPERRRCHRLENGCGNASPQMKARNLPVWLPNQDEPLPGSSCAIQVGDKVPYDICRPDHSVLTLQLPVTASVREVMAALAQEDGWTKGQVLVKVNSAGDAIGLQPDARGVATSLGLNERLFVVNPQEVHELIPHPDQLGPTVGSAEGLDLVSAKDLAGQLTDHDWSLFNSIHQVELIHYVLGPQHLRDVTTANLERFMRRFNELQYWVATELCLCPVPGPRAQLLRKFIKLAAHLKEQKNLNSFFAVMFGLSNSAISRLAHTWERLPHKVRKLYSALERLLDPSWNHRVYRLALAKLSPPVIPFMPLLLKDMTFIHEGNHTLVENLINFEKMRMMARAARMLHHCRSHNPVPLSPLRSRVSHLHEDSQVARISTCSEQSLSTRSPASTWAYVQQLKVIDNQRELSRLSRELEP
Results filed as inconclusive are left out. Activity calls are given as the source filed them. Calls come from the whole dose curve; as a rule, active = well fitted inhibition curve with a large enough effect; inconclusive = small, poorly fitted or top-dose-only effect; inactive = no such curve, though single readings can be large or run the other way.
API: response.call in yes (1) for active, no (0) for inactive

Cc1ccc(S(=O)(=O)NCc2ccccc2)cc1C(=O)N1CCCC(C(F)(F)F)C1 (stereo not drawn): no (0)
CC(C)(C(=O)N1CCC1(C)C(=O)NS(=O)(=O)c1cccc(Cl)c1)c1ccccc1 (stereo not drawn): yes (1)
CCOC(=O)c1c(NC(=O)CSc2nnc(C)c(=O)[nH]2)sc(C)c1-c1ccc(C)cc1: yes (1)
CCCCn1nnnc1C(c1cc2ccccc2o1)N1CCCC1 (stereo not drawn): no (0)
CSC1=NSC2=NC(=O)/C(=C\c3coc4ccccc4c3=O)C(=N)N12: no (0)

Check the results log: what was the call for CCN(CC)c1ccc(/C=C/C(=O)c2ccc(Br)cc2)cc1 ?
no (0)

Recorded test outcome, item Cc1cc2ccccc2cc1C(=O)c1ccccc1
no (0)

Recorded test outcome, item CC(=O)Nc1scc(-c2ccccc2)[n+]1-c1ccc(C)cc1
no (0)

Please share the test call associated with CCN(CC)c1ccc2cc(-c3nnc(-c4cccc(Cl)c4)o3)c(=O)oc2c1 .
no (0)

What did this assay record as the result for O=C1CCc2cc(NS(=O)(=O)c3ccc([N+](=O)[O-])cc3)cc3c2N1CC3 ?
no (0)

Recorded test call requested for COc1ccc(CNC(=O)C(C#N)c2nc3ccccc3nc2N2CCCC2)cc1 (stereo not drawn)
no (0)
